Assay: CCTE_Shafer_MEA_dev_mutual_information_norm: CCTE's Neural Network Formation Assay for Mutual Information Normalization, Shafer Lab (AID 2284091)
Activity calls are given as the source filed them. Rule for the calls: active = hit-call score of the fitted dose curve at least 0.9, where 1 is the maximum; inactive = score below 0.9.
Possible outcomes: active, inactive

>>> class_label("CC(=O)[O][Hg][c]1ccccc1")
"active"
>>> class_label("ClC1(Cl)C2(Cl)C3(Cl)C4(Cl)C(Cl)(Cl)C5(Cl)C3(Cl)C1(Cl)C5(Cl)C24Cl (configuration not stated)")
"active"
>>> class_label("O=C(O)C(F)(F)C(F)(F)C(F)(F)C(F)(F)C(F)(F)C(F)(F)F")
"inactive"
>>> class_label("CCC(=O)C(CC(C)N(C)C)(c1ccccc1)c1ccccc1 (configuration not stated)")
"active"
>>> class_label("O=C1C2(Cl)C3(Cl)C4(Cl)C(Cl)(Cl)C5(Cl)C3(Cl)C1(Cl)C5(Cl)C24Cl (configuration not stated)")
"active"
>>> class_label("COP(=O)(OC)O/C(=C\\Cl)c1cc(Cl)c(Cl)cc1Cl")
"inactive"
>>> class_label("C=C(C)C(=O)[O][Sn]([CH2]CCC)([CH2]CCC)[CH2]CCC")
"active"

###

Target: Androgen Receptor/SRC-1 Co-activator, AR (gene 367) (UniProt P10275)
Sequence (P10275 whole entry, looked up): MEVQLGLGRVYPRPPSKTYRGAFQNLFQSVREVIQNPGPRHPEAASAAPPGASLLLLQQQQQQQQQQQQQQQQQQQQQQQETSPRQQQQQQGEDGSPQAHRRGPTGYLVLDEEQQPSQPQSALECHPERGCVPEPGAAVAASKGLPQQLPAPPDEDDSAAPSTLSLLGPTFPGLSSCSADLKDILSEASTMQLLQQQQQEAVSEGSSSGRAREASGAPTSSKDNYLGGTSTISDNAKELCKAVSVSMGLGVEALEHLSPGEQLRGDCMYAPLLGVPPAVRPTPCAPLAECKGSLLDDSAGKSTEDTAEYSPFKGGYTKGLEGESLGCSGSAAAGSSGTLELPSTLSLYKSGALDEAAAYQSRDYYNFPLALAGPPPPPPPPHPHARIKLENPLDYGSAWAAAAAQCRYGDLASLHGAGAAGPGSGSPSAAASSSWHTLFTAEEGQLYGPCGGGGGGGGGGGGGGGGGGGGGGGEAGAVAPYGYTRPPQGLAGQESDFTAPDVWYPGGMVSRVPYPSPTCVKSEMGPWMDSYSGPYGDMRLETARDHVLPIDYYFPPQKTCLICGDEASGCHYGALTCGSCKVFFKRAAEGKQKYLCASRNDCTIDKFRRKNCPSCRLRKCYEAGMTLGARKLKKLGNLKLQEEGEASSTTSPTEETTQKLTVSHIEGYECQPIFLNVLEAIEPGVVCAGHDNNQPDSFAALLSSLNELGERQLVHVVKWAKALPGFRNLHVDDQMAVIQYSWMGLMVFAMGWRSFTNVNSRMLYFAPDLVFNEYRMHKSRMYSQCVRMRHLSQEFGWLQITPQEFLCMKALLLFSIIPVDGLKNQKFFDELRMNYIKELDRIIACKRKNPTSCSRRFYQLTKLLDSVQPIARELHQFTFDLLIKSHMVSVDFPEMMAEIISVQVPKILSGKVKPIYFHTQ
Assay: OT_AR_ARSRC1_0480: Odyssey Thera (OT) 8-hour HEK293T Protein-Complementation Assay for Androgen Receptor/SRC-1 Co-activator (AID 2283354);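 note: hits raise the complementation signal above DMSO so AC50 marks enhancers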
Inconclusive results are not listed. Calls of active or inactive are those of the source. How the source made its calls: active means hit-call score of the fitted dose curve at least 0.9, where 1 is the maximum; inconclusive means response in the unintended direction; inactive means score below 0.9.
readout-kind: AC50

>>> assay_value("C=CC(=O)OCCCCCC(C)C")
"inactive"
>>> assay_value("CC(C)c1cccc(C(C)C)c1O")
"inactive"
>>> assay_value("CC(C)(c1ccc(OCC2CO2)cc1)c1ccc(OCC2CO2)cc1 (configuration not stated)")
"inactive"
>>> assay_value("COP(=O)(OC)O/C(=C\\Cl)c1cc(Cl)c(Cl)cc1Cl")
"inactive"
>>> assay_value("Cl/C=C\\C[N+]12CN3CN(CN(C3)C1)C2")
"91.5 µM (active)"
>>> assay_value("Cc1ccc2ccccc2c1C")
"inactive"
>>> assay_value("ClC1(Cl)C2(Cl)C3(Cl)C4(Cl)C(Cl)(Cl)C5(Cl)C3(Cl)C1(Cl)C5(Cl)C24Cl (configuration not stated)")
"inactive"
>>> assay_value("O=c1[nH]c(=O)[nH]c(=O)[nH]1")
"inactive"
>>> assay_value("CCC1(c2ccc(N)cc2)CCC(=O)NC1=O (configuration not stated)")
"inactive"
>>> assay_value("c1cc[c]([Hg][c]2ccccc2)cc1")
"32.2 µM (active)"
>>> assay_value("C[C@H]1CCCC(=O)CCC/C=C/c2cc(O)cc(O)c2C(=O)O1")
"inactive"
>>> assay_value("CC(=O)[O][Hg][c]1ccccc1")
"3.4 µM (active)"

###

Read-out: X-box binding protein 1 (XBP1), XBP1 (gene 7494)
Experiment: LTEA_HepaRG_XBP1: Life Technologies and Expression Analysis (LTEA) Assay for X-box binding protein 1 (XBP1) using HepaRG (AID 2283540)
Settings: mRNA level, 48 h; actives raise or lower the signal
Calls of active or inactive are those of the source. How the source made its calls: active means hit-call score of the fitted dose curve at least 0.9, where 1 is the maximum; inactive means score below 0.9.
Outcomes: active, inactive

>>> class_label("O=[N+]([O-])c1ccc(O)c([N+](=O)[O-])c1")
"active"
>>> class_label("O=C(O)C(F)(F)C(F)(F)C(F)(F)C(F)(F)C(F)(F)C(F)(F)F")
"inactive"
>>> class_label("C=C(C)C(=O)[O][Sn]([CH2]CCC)([CH2]CCC)[CH2]CCC")
"inactive"
>>> class_label("O=C1C2(Cl)C3(Cl)C4(Cl)C(Cl)(Cl)C5(Cl)C3(Cl)C1(Cl)C5(Cl)C24Cl (stereo unspecified)")
"active"
>>> class_label("NC(=O)O")
"inactive"
>>> class_label("CC(C)(c1ccccc1)c1ccc(O)c(C(C)(C)c2ccccc2)c1")
"inactive"
>>> class_label("Cc1ccccc1N")
"inactive"
>>> class_label("ClC1(Cl)C2(Cl)C3(Cl)C4(Cl)C(Cl)(Cl)C5(Cl)C3(Cl)C1(Cl)C5(Cl)C24Cl (stereo unspecified)")
"inactive"
>>> class_label("O=c1[nH]c(=O)[nH]c(=O)[nH]1")
"inactive"
>>> class_label("C[C@@H]1C[C@@H]([C@H](O)CC2CC(=O)NC(=O)C2)C(=O)[C@@H](C)C1")
"active"
>>> class_label("CCOP(=S)(OCC)Oc1nc(Cl)c(Cl)cc1Cl")
"inactive"
